assay: Enzyme kinetics of toddalolactone metabolism in monkey liver microsomes (oxidative metabolism and glucuronidation); assay type: in vitro ADME; conditions: monkey, liver microsomes, pH 7.4, MLMs; P450-catalyzed oxidation; P4 formation; Vmax/Km
assayMetric: microsomal CLint (µL/min/mg)
Reply with just the number (in µL/min/mg).

Form field: reported microsomal CLint of COc1cc2oc(=O)ccc2c(OC)c1C[C@@H](O)C(C)(C)O [toddalolactone] 0.63
